Conditions: in ethyl acetate, 303.15 K
VALUE_KIND: solubility (mole fraction)

input: Please give the measured solubility (mole fraction) for this compound: O=C(O)CC[C@H](NC(=O)OCC1c2ccccc2-c2ccccc21)C(=O)O
output: 0.00347

----------
Details: in acetone, 313.15 K
VALUE_KIND: solubility (mole fraction)

input: Please give the measured solubility (mole fraction) for this molecule: O=C(O)CC[C@H](NC(=O)OCC1c2ccccc2-c2ccccc21)C(=O)O
output: 0.0393

----------
Settings: in methanol, 288.15 K
VALUE_KIND: solubility (mole fraction)
One number for each entry.

input: Please give the measured solubility (mole fraction) for this molecule: O=C(O)CC[C@H](NC(=O)OCC1c2ccccc2-c2ccccc21)C(=O)O
output: 0.0266

----------
Details: in 2-butanone, 293.15 K
VALUE_KIND: solubility (mole fraction)
One number for each entry.

input: Please give the measured solubility (mole fraction) for this compound: O=C(O)CC[C@H](NC(=O)OCC1c2ccccc2-c2ccccc21)C(=O)O
output: 0.012

----------
Conditions: in acetonitrile, 308.15 K
VALUE_KIND: solubility (mole fraction)
Numbers only.

input: Please give the measured solubility (mole fraction) for this compound: O=C(O)CC[C@H](NC(=O)OCC1c2ccccc2-c2ccccc21)C(=O)O
output: 0.00139

----------
Conditions: in n-butyl acetate, 318.15 K
VALUE_KIND: solubility (mole fraction)
One number for each entry.

input: Please give the measured solubility (mole fraction) for this compound: O=C(O)CC[C@H](NC(=O)OCC1c2ccccc2-c2ccccc21)C(=O)O
output: 0.0034

----------
Conditions: in acetonitrile, 323.15 K
VALUE_KIND: solubility (mole fraction)
Give bare numbers.

input: Please give the measured solubility (mole fraction) for this compound: O=C(O)CC[C@H](NC(=O)OCC1c2ccccc2-c2ccccc21)C(=O)O
output: 0.00232

----------
Details: in methyl acetate, 303.15 K
VALUE_KIND: solubility (mole fraction)
Give bare numbers.

input: Please give the measured solubility (mole fraction) for this compound: O=C(O)CC[C@H](NC(=O)OCC1c2ccccc2-c2ccccc21)C(=O)O
output: 0.00473

----------
Details: in n-butanol, 308.15 K
VALUE_KIND: solubility (mole fraction)

input: Please give the measured solubility (mole fraction) for this compound: O=C(O)CC[C@H](NC(=O)OCC1c2ccccc2-c2ccccc21)C(=O)O
output: 0.0141

----------
Conditions: in acetonitrile, 303.15 K
VALUE_KIND: solubility (mole fraction)

input: Please give the measured solubility (mole fraction) for this compound: O=C(O)CC[C@H](NC(=O)OCC1c2ccccc2-c2ccccc21)C(=O)O
output: 0.00123

----------
Conditions: in ethanol, 308.15 K
VALUE_KIND: solubility (mole fraction)
One number for each entry.

input: Please give the measured solubility (mole fraction) for this compound: O=C(O)CC[C@H](NC(=O)OCC1c2ccccc2-c2ccccc21)C(=O)O
output: 0.0419

----------
Settings: in isopropanol, 298.15 K
VALUE_KIND: solubility (mole fraction)
One number for each entry.

input: Please give the measured solubility (mole fraction) for this compound: O=C(O)CC[C@H](NC(=O)OCC1c2ccccc2-c2ccccc21)C(=O)O
output: 0.0175

----------
Settings: in dimethyl carbonate, 318.15 K
VALUE_KIND: solubility (mole fraction)

input: Please give the measured solubility (mole fraction) for this compound: O=C(O)CC[C@H](NC(=O)OCC1c2ccccc2-c2ccccc21)C(=O)O
output: 0.00157
